Hey, just so you know, these numbers are from paper PMC8591536.

molecular target: RPA (Rfa1/Rfa2/Rfa3) (Saccharomyces cerevisiae? (budding …, UniProt P22336;P26754;P26755 1-621;1-273;1-122)); test: fluorescence polarization; 5 mM MgCl2; FP: 20 mM HEPES pH 7.5, 125 mM NaCl, 0.1% Tween-20, 23°C, 50 nM DNA (RPA/SUMO-RPA on ss32: 1 nM DNA, plus 5 mM MgCl2, 1 mM DTT); EMSA: same buffer with 5 mM MgCl2 (Fig 8 also 1 mM DTT), 23°C, 6% gel in 0.5x TBE; settings: protein: recombinant; tags: noncleavable N-terminal His6 on Rfa2; copies: 1;1;1; label: 5' 6-FAM; single strand
Sequence (P22336 whole entry, chain 1 of 3): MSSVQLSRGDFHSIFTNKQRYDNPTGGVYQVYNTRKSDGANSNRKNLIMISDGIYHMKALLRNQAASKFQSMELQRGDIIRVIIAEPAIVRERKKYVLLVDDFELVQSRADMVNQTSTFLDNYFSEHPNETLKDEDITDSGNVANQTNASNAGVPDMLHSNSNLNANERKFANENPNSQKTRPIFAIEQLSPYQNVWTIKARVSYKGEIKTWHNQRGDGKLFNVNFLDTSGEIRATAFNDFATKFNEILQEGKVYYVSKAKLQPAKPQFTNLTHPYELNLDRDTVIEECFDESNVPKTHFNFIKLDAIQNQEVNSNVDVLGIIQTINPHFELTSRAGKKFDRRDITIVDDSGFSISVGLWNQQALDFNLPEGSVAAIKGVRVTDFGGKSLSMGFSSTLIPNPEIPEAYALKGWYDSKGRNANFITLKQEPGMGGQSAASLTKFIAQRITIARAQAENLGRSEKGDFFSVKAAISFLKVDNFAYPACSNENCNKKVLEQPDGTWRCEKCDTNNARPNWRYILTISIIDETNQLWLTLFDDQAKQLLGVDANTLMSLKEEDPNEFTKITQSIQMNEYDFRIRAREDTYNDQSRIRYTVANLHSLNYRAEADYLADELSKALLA
Sequence (P26754 whole entry, chain 2 of 3): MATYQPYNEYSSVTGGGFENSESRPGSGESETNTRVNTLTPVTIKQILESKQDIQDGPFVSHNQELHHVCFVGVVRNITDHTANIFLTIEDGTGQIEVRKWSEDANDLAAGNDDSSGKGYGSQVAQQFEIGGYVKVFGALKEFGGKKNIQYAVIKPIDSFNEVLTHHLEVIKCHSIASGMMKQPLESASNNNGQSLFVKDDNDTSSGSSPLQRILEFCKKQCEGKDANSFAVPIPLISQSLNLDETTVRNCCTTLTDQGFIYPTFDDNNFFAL
Sequence (P26755 whole entry, chain 3 of 3): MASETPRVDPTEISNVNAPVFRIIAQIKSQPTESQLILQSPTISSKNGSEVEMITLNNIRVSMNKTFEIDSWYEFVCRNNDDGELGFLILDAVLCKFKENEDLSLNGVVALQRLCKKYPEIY
reported_property: Kd

So what does the record say about Kd for TTTTTTTTTTTTTTTTTTTTTTTTTTTTTTTT (ssDNA) [6-FAM-ss32 (32dT)] ?
< 1 nM
